- systemUnderTest: T1, human IL-36R extracellular domain expressed with a C-terminal myc-myc-hexahistidine tag (hIL-36R-MMH) (human, UniProt Q9HB29 20-337)
- T1 construct: also called Human IL-36R-MMH; REGN2105
- T1 sequence (Q9HB29 other isoform, or with tags, fused parts or gaps limits assumed): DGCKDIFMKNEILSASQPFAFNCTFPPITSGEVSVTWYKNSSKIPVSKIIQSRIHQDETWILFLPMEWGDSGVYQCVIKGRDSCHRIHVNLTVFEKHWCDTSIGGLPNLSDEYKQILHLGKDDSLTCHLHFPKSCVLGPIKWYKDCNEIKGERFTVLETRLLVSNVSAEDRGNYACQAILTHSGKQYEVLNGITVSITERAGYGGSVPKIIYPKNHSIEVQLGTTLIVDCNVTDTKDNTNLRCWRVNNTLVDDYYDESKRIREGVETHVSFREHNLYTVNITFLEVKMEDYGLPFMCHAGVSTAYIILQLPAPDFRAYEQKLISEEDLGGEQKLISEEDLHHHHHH
- experimentalDetails: SPR Biacore T200, mAb captured on anti-hFc, 25C, PBS-T pH 6.0 running buffer
metric: 100 nM Human IL-36R-MMH Bound (RU)

>>> recordedresult("H4H14708P2 (antibody, human IgG4 S228P, kappa, V domains shown, Fully human anti-IL-36R antibody) VH: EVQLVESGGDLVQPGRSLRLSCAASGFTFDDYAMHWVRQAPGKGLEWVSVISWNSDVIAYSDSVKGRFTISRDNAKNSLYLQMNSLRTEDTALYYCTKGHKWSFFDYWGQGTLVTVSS VL: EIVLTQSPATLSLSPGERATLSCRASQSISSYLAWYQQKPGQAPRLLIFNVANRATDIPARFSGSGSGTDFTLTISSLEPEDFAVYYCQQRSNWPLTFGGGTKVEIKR")
79
>>> recordedresult("H4H14757P (antibody, human IgG4 S228P, kappa, V domains shown, Fully human anti-IL-36R antibody) VH: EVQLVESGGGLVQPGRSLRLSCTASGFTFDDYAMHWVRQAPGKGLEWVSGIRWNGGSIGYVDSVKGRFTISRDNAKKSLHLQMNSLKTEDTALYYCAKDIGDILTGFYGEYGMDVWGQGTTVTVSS VL: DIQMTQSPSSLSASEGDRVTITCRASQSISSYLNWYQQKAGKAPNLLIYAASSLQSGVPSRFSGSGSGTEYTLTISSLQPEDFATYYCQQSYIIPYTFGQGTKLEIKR")
98
>>> recordedresult("H4H14709P (antibody, human IgG4 S228P, kappa, V domains shown, Fully human anti-IL-36R antibody) VH: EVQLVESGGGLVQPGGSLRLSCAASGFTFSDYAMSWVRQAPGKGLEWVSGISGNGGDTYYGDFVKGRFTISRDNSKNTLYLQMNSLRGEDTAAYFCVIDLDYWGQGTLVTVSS VL: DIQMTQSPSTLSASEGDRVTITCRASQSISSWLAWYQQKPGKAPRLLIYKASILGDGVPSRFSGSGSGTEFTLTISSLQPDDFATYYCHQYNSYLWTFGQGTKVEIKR")
99
>>> recordedresult("H4H14700P2 (antibody, human IgG4 S228P, kappa, V domains shown, Fully human anti-IL-36R antibody) VH: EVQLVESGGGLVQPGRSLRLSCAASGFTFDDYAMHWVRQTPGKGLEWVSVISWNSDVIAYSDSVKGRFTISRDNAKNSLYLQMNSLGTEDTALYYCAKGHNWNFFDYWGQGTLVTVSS VL: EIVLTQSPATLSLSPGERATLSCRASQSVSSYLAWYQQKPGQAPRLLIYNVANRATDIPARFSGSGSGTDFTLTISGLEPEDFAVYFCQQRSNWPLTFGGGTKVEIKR")
120
>>> recordedresult("H4H14699P2 (antibody, human IgG4 S228P, kappa, V domains shown, Fully human anti-IL-36R antibody) VH: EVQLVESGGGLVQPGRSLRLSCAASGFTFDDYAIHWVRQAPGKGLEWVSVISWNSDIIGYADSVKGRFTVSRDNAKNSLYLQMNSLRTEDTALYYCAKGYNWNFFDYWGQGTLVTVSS VL: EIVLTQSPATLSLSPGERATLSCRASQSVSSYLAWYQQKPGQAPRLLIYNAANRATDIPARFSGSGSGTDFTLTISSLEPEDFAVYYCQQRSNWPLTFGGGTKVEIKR")
79
